Tested on: A673 NR0B1-luciferase reporter, viability-normalised luminescence
test.details: suppressors of NR0B1-promoter luciferase reporter, dose response, EWS/Fli inhibitor project, luciferase luminescence, A673 cells, cherry-pick (AID 686920)
endpoint.label: AC35

INSERT INTO results (compound, endpoint_label, meas_value) VALUES
  ('C=C(C(=O)c1ccccc1)C(C(=C)C(=O)c1ccccc1)c1ccc(OC)cc1', 'AC35', '4.37 µM'),
  ('O=C1NC2C(=CC(O)C(O)C2O)c2cc3c(cc21)OCO3 (stereo not given)', 'AC35', '0.429 µM'),
  ('O=c1[nH]c(=O)n(C2C[C@H](O)[C@@H](CO)O2)cc1C(F)(F)F (stereo not given in full)', 'AC35', '4.01 µM'),
  ('Cc1ccccc1S(=O)(=O)N1CC[C@@H]2[C@@H](CO)Nc3ccc(-c4ccc(C#N)cc4)cc3[C@@H]21', 'AC35', '5.42 µM'),
  ('CC(C)c1ccc(OCc2cccc(C(=O)N/N=C/c3cccnc3)c2)cc1', 'AC35', '1.03 µM'),
  ('O=C(Nc1ccc(F)cc1)N1CCCCN2[C@@H](CO)[C@H](c3ccc(C4=CCCCC4)cc3)[C@@H]2C1', 'AC35', '13.3 µM'),
  ('Nc1ccc(Oc2cccc(Oc3ccc(N)cc3)c2)cc1', 'AC35', '1.15 µM'),
  ('CN(C)c1ccc(N=Nc2ccc(C(=O)O)cc2)cc1', 'AC35', '5.73 µM'),
  ('CCCCc1c(-c2ccccc2OC)ncn1Cc1ccc(C(C)(C)C)cc1', 'AC35', '10 µM'),
  ('COc1ccc(/C=C/C(=O)c2cc(F)ccc2OC(=O)c2ccccc2OC)cc1OC', 'AC35', '1.59 µM');

* * *

Reported values of AC35 for individual entries
System: A673 NR0B1-luciferase reporter, viability-normalised luminescence
test.details: suppressors of NR0B1-promoter luciferase reporter, dose response, EWS/Fli inhibitor project, luciferase luminescence, A673 cells, cherry-pick (AID 686920)
endpoint.label: AC35

INSERT INTO results (molecule, system_name, endpoint_label, meas_value) VALUES
  ('COc1cc2c(OC(C)=O)c3c(c(-c4ccc5c(c4)OCO5)c2cc1OC)C(=O)OC3', 'A673 NR0B1-luciferase reporter, viability-normalised luminescence', 'AC35', '2.34 µM'),
  ('COc1ccc(S(=O)(=O)Nc2ccc3c(c2)C(=O)N([C@H](C)CO)C[C@@H](C)[C@@H](CN(C)CC2CCCCC2)OCCCC[C@H](C)O3)cc1', 'A673 NR0B1-luciferase reporter, viability-normalised luminescence', 'AC35', '14.2 µM'),
  ('COC(=O)c1cccc(NC(=O)NC(=O)c2ccccc2Cl)c1', 'A673 NR0B1-luciferase reporter, viability-normalised luminescence', 'AC35', '0.215 µM'),
  ('OCCN1CCN(C(=S)c2ccc(-c3ccccc3)cc2)CC1', 'A673 NR0B1-luciferase reporter, viability-normalised luminescence', 'AC35', '1.94 µM'),
  ('C[C@H]1CN([C@@H](C)CO)C(=O)c2cc(NS(=O)(=O)c3ccc(Cl)cc3)ccc2O[C@H]1CN(C)Cc1ccc(Cl)c(Cl)c1', 'A673 NR0B1-luciferase reporter, viability-normalised luminescence', 'AC35', '40.5 µM'),
  ('COC1C(C)OC(OC2CC(C)(O)Cc3cc4c(c(O)c32)C(=O)c2c(O)cc3c(c2C4=O)OC2OC3(C)C(O)C(N(C)C)C2O)C(OC)C1(C)OC (stereo not drawn)', 'A673 NR0B1-luciferase reporter, viability-normalised luminescence', 'AC35', '0.0829 µM'),
  ('COc1cc2c(cc1NC(=O)CN(C)Cc1ccc(OC)c(OC)c1)oc1ccccc12', 'A673 NR0B1-luciferase reporter, viability-normalised luminescence', 'AC35', '8.33 µM'),
  ('O=C(O)c1ccccc1C(=O)Nc1ccc(Oc2cccc3ccccc23)cc1', 'A673 NR0B1-luciferase reporter, viability-normalised luminescence', 'AC35', '2.28 µM'),
  ('CN1C(=O)c2cc(NC(=O)c3ccc(C(F)(F)F)cc3)ccc2OC[C@@H]2O[C@@H](CC(=O)NC3Cc4ccccc4C3)CC[C@H]21', 'A673 NR0B1-luciferase reporter, viability-normalised luminescence', 'AC35', '8.33 µM'),
  ('COc1ccc2oc(C(=O)NCCc3ccccc3)c(C)c2c1', 'A673 NR0B1-luciferase reporter, viability-normalised luminescence', 'AC35', '6.25 µM'),
  ('C[C@H]1CN([C@@H](C)CO)C(=O)Cc2cc(NC(=O)C3CC3)ccc2O[C@H]1CN(C)S(=O)(=O)c1ccc(Cl)cc1', 'A673 NR0B1-luciferase reporter, viability-normalised luminescence', 'AC35', '16.1 µM'),
  ('C=C1C(=O)OC2C1CCC(C)C1(O)C=CC(=O)C21C (stereo not drawn)', 'A673 NR0B1-luciferase reporter, viability-normalised luminescence', 'AC35', '11.5 µM'),
  ('CC1OC(OC2CC(O)C3(CO)C4C(O)CC5(C)C(C6=CC(=O)OC6)CCC5(O)C4CCC3(O)C2)C(O)C(O)C1O (stereo not drawn)', 'A673 NR0B1-luciferase reporter, viability-normalised luminescence', 'AC35', '0.0738 µM'),
  ('N/C(=C\C(=O)c1cc(Cl)ccc1O)C(Cl)(Cl)Cl', 'A673 NR0B1-luciferase reporter, viability-normalised luminescence', 'AC35', '4.64 µM'),
  ('COc1cc2oc3cc(C#Cc4ccc(N)cc4)ccc3c(=O)c2cc1OC', 'A673 NR0B1-luciferase reporter, viability-normalised luminescence', 'AC35', '10.3 µM'),
  ('N#C[C@H]1[C@H](c2ccc(-c3ccccc3F)cc2)[C@@H](CO)N1C(=O)c1ccccn1', 'A673 NR0B1-luciferase reporter, viability-normalised luminescence', 'AC35', '9.49 µM'),
  ('O=C1NC(=O)N(CCc2ccc(F)cc2)C(=O)/C1=C/C=C/c1ccccc1', 'A673 NR0B1-luciferase reporter, viability-normalised luminescence', 'AC35', '2.66 µM'),
  ('Cc1nc(N)nc(N)c1-c1ccc(Cl)c(Cl)c1', 'A673 NR0B1-luciferase reporter, viability-normalised luminescence', 'AC35', '0.495 µM');

Each recorded value in this set is attributed to PubChem BioAssay AID686920.
